# pIC50 per record follows
target or test system: T1, human GLP-1 receptor (human, UniProt P43220 24-463)
T1 construct: whole, on cells; reporter assay on whole cells
experiment: SPA displacement of [125I]GLP-1(7-36)NH2 from hGLP-1R BHK membranes
pIC50: −log10 of the molar value. *1 amine or outer side, *2 acyl side, *3 side chain or, on linkers, in order; H or OH if unused. Where no end group is shown, it is not given here. Side-chain parts run from the residue outwards. [ ]: non-standard residue; d: D form. The star is where a group is joined. C20 diacid = O=C(O)CCCCCCCCCCCCCCCCCCC(=O)*; C18 diacid = O=C(O)CCCCCCCCCCCCCCCCC(=O)*; γGlu = O=C(O)[C@H](CCC(=O)[*:2])N[*:1]; Desaminohistidyl = O=C(CCc1c[nH]cn1)*; AEEA = NCCOCCOCC(=O)O; Aib = CC(C)(N)C(=O)O
parameter: pIC50

| binder | parameter | test result |
| --- | --- | --- |
| [Desaminohistidyl][Aib]HGTFTSDVSKYLEEQAAREFIAWLLK([Gly-Ser-Glu-Gly-Ser-γGlu-γGlu-C20 diacid])T-NH2 | pIC50 | 9.40 |
| [Desaminohistidyl][Aib]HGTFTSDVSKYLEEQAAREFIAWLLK([Ado-Ado-γGlu-γGlu-C18 diacid])T-NH2 | pIC50 | 9.30 |
| XXHGTFTSDYSRYLEEQAAREFIAWLLRK (Imp (desamino-His) at 7; Acb at 8; Lys35 N-epsilon acylated with 17-carboxyheptadecanoyl-γGlu-γGlu-Ado-γGlu-Ado-γGlu-Ado-γGlu-; C-terminal amide (GLP-1(7-37) numbering)) | pIC50 | 9.05 |
| [Desaminohistidyl]AHGTFTSDVSKYLEGRAAREFIAWLLK([Ado-Ado-γGlu-γGlu-γGlu-C18 diacid])GGG | pIC50 | 9.05 |
| [Desaminohistidyl]AHGTFTSDVSRYLEEQAARK([AEEA-AEEA-γGlu-γGlu-γGlu-C18 diacid])FIAWLLR | pIC50 | 8.66 |

Recorded values, source patent US20160102129A1.
